Each recorded value in this set is attributed to PubChem BioAssay (NCI).

Test system: MDA-MB-468 breast
Assay: NCI-60 one-dose screen, 48 h (100 = growth as untreated, 0 = no growth, -100 = all killed)
Settings: 10 µM unless noted
This is part of a sample that, as a whole, favours compounds with a hit. Of some 83,000 tested, about 20% had one in any assay.
EXPERIMENTAL ENDPOINT: growth (%)
The reply should contain only the number, in %.

Tell me growth reported for `Cl.Fc1c[c-]c(-c2ccccn2)c(F)c1.[Pt].c1ccc([PH+](CC[PH+](c2ccccc2)c2ccccc2)c2ccccc2)cc1` -79.2

Tell me growth reported for `O=C(/C=C/c1ccc(O)c(O)c1)N1CCN(c2ccc(Cl)cc2)CC1` 39.7

Tell me growth reported for `Cn1cc(C(=O)c2nc(-c3c[nH]c4ccc(Br)cc34)no2)c2cc(F)ccc21` 108

Tell me growth reported for `O=C1Nc2ccc(Cl)cc2/C1=N/c1nc(-c2ccc(Cl)cc2)cs1` -18

Tell me growth reported for `Oc1ccc(/C=N/NC(=S)Nc2ccccc2)nc1` -37.7

Tell me growth reported for `Nc1c(C(=O)Nc2ccncc2)sc2nc3c(cc12)CCCCCCCC3` -75.7

Tell me growth reported for `COc1cc(-c2nc(-c3ccccc3)[nH]c2-c2ccnc(NCCCNS(=O)(=O)c3ccc(C)cc3)n2)ccc1F` 79.4

Tell me growth reported for `N#Cc1nc(-c2ccccc2)oc1S(=O)(=O)N1CCN(c2ccc(F)cc2)CC1` 44.8

Tell me growth reported for `COc1cnc2c(c1)C(=O)c1c-2n(CCCn2ccnc2)c(=O)c2cc(F)ccc12` -35.7

Tell me growth reported for `COC(=S)SCN(CSC(=S)OC)c1ccc(Cl)cc1` 95.1

====

System: MDA-MB-468 breast
Assay: NCI-60 one-dose screen, 48 h (100 = growth as untreated, 0 = no growth, -100 = all killed)
Conditions: 10 µM unless noted
The panel holds about 83,000 compounds, 20% with a hit somewhere; the sample as a whole holds those more often.
EXPERIMENTAL ENDPOINT: growth (%)
The reply should contain only the number, in %.

Tell me growth reported for `Cc1ccc(F)cc1NC(=O)c1cc(Cl)ccc1Nc1ccccc1` 61.8

Tell me growth reported for `Cc1nn(-c2ccccc2)c(Oc2ccccn2)c1-c1nc2ccccc2s1` 80

Tell me growth reported for `COc1ccc(CNc2ccc3nc(NC(=O)CN4CCCCCC4)sc3c2)cc1` 46.8

Tell me growth reported for `Cc1cc2c(-c3nc4ccccc4n3C)c(O)c(O)cc2c(O)c1-c1c(C)cc2c(-c3nc4ccccc4n3C)c(O)c(O)cc2c1O` 35.7

Tell me growth reported for `O=C(Nc1cc(-c2cccnc2)nc(NCCCN2CCOCC2)n1)c1cc(Br)cc(C(F)(F)F)c1` 52.8

Tell me growth reported for `Cc1ccc(-c2cc3nc(C(Cl)Cl)nc(-c4ccc(S(=O)(=O)N(C)C)cc4)n3n2)cc1` 82

Tell me growth reported for `CC1(C)C(=O)CC[C@]2(C)[C@H]3C(=O)C=C4[C@@H]5C[C@@](C)(C(=O)NCCNCCN)CC[C@]5(C)CC[C@@]4(C)[C@]3(C)CC[C@@H]12` 114

Tell me growth reported for `N#CSCc1cc(Cl)c(CSC#N)cc1Cl` 66

Tell me growth reported for `Clc1ccc(-c2ccc(CNCC3CCNCC3)o2)c(-c2ccccc2)c1` -79.1

====

Test system: MDA-MB-468 breast
Assay: NCI-60 one-dose screen, 48 h (100 = growth as untreated, 0 = no growth, -100 = all killed)
Settings: 10 µM unless noted
This is part of a sample that, as a whole, favours compounds with a hit. Of some 83,000 tested, about 20% had one in any assay.
Assignment: determine reported growth for the given molecules.
The reply should contain only the number, in %.

Tell me growth reported for `Cc1cc(O)c2c(c1)C(=O)c1cc(O)cc(O)c1C2=O` 73.2

Tell me growth reported for `C/C(=N\NC(=S)N1CC2CCC(CC2)C1)c1ccccn1` -14.9

Tell me growth reported for `CCN(C)CCCOc1ccc(/C(=C(\C)Cc2cccc(OC)c2)c2ccc(OC(C)=O)cc2)cc1` 101

Tell me growth reported for `O=C1C=CC(O)=CC1=P(c1ccccc1)(c1ccccc1)c1ccccc1` 92

Tell me growth reported for `CC(C)Sc1ncnc2nc[nH]c12` 109

Tell me growth reported for CC(c1ccccc1)N1C(=O)C(C2SC(=S)N(C(C)c3ccccc3)C2=O)SC1=S (stereo not drawn) 44.2

Tell me growth reported for `COc1ccc(C(=O)/C=C/c2ccccc2)cc1S(N)(=O)=O` 66.1

Tell me growth reported for `CC(=O)n1nc(C(=O)OC(C)(C)C)c2cc(F)c(F)cc21` 97.4

Tell me growth reported for `Cc1ccc2c(c1)c1nc3cc(C)c(C)cc3nc1n2CCN(C)C` -2.86

Tell me growth reported for `O=C(C[P+](c1ccccc1)(c1ccccc1)c1ccccc1)c1ccccc1` 103

Tell me growth reported for COc1ccc2nc3c(cc2c1)C(=O)CC(C(F)(F)F)C3 (stereo not drawn) 35.6

Tell me growth reported for COc1ccc(/C(=N\N)C(=O)c2ccccc2)cc1 (tested in a mixture with another compound) 89

Tell me growth reported for `O=C(COc1ccc(/C=C2\C(=O)Nc3ccc(F)cc32)cc1)Nc1ccccc1` 98.5

Tell me growth reported for `Cc1ccc(-c2nc(C(Cl)Cl)nc3cc(C)nn23)cc1` -37.7

Tell me growth reported for `COc1ccc(-c2c3c(nn2-c2ccc(N)cc2)CCc2cnoc2-3)cc1OC` 92.8

Tell me growth reported for `Cc1n[nH]c(C)c1-c1c(C)n[nH]c1C` -0.751

Tell me growth reported for `CC(=O)Nc1ccccc1-c1n[nH]c(=O)[nH]c1=O` 102

Tell me growth reported for `[O-][n+]1c2ccccc2[n+]([O-])c2c3ccccc3[nH]c21` -36.6

Tell me growth reported for `O=S(=O)(NCCCNc1cc(-c2cn(-c3ccccc3)nc2-c2cccc(O)c2)ccn1)c1ccc(C(F)(F)F)cc1` 3.04

Tell me growth reported for `Cc1cc(-c2ccccc2)on1` 109

Tell me growth reported for `CN(C)c1ccc(N)c2ccccc12` 57.8

Tell me growth reported for `NC(N)=Nc1ccc(Oc2cccc(NC(N)=Nc3ccc(Br)cc3)c2)cn1` 8.74

Tell me growth reported for `Cc1nc2ccccc2c(/C=C/c2ccc(F)cc2)c1C(N)=O` 107

====

Test system: MDA-MB-468 breast
Experiment: NCI-60 one-dose screen, 48 h (100 = growth as untreated, 0 = no growth, -100 = all killed)
Conditions: 10 µM unless noted
Compounds without any hit were thinned out: in the full panel of roughly 83,000, 20% have a hit. Active and inactive are the calls of the source. How the source made its calls: active means growth percent below 10; inactive means the rest.
Assignment: determine reported growth for the given compounds.

Tell me growth reported for `Clc1ccc(/C=C/c2nc(N3CCOCC3)c3nc(Cl)c(Cl)cc3n2)cc1` 102% (inactive)

Tell me growth reported for `CCOC(=O)CCC(=O)O[C@H]1[C@H](O[C@@H]2[C@@H](C)[C@H](O[C@H]3C[C@@](C)(OC)[C@@H](O)[C@H](C)O3)[C@@H](C)C(=O)O[C@H](CC)[C@@](C)(O)[C@H](O)[C@@H](C)C(=O)[C@H](C)C[C@@]2(C)O)O[C@H](C)C[C@@H]1N(C)C` 109% (inactive)

Tell me growth reported for `CC1(C)c2[nH]c3ccccc3c2C[C@]2(C)[C@H]3C(=O)C=C4[C@@H]5C[C@@](C)(C(N)=O)CC[C@]5(C)CC[C@@]4(C)[C@]3(C)CC[C@@H]12` 56.4% (inactive)

Tell me growth reported for Cc1ccccc1NC(=O)NC(CC(N)=O)c1ccc2c(c1)nc(-c1cccc(Oc3ccc(C(C)(C)C)cc3)c1)n2CCCN1CCCCC1C (configuration not stated) -78.8% (active)

Tell me growth reported for `COc1ccc(CCc2nc3cc(-c4c(C)noc4C)ccc3n2CCN2CCOCC2)cc1` 9.69% (active)

Tell me growth reported for `O=C1/C(=C/c2ccc(-c3ccccc3C(F)(F)F)o2)SC(=S)N1CCc1ccc(O)cc1` 28.8% (inactive)

Tell me growth reported for `C#CCOc1ccc2ncnc(NCc3cccc(NC(=O)CCl)c3)c2c1` 4.87% [8.25 µM] (active)

====

Tested on: MDA-MB-468 breast
Assay: NCI-60 one-dose screen, 48 h
Details: 10 µM unless noted
Compounds without any hit were thinned out: in the full panel of roughly 83,000, 20% have a hit. Calls of active or inactive are those of the source. The calls were made as follows: active = growth percent below 10; inactive = the rest.
Can you answer with just one of these options? active, inactive

Fill in: this test's call for `CN1CCN(C(=O)c2c3c(n4ccccc24)C(=O)c2ncccc2C3=O)CC1` is ___ inactive

Fill in: this test's call for `O=C(O)c1ccc(CO)o1` is ___ inactive

Fill in: this test's call for `COc1ccc(NC(=O)c2sc3nc(C)c(C(=O)/C=C/c4cccc(OC)c4)cc3c2N)cc1` is ___ inactive

Fill in: this test's call for `CC(C)(Sc1cc(C(C)(C)C)c(OC(=O)CCCC(=O)O)c(C(C)(C)C)c1)Sc1cc(C(C)(C)C)c(OC(=O)CCCC(=O)O)c(C(C)(C)C)c1` is ___ inactive

Fill in: this test's call for `COc1ccc(/C=C(\C#N)c2cc(OC)c3c(c2)OCO3)cc1` is ___ active

Fill in: this test's call for `CCOc1ccc(NC(=O)c2ccccc2-c2ccccc2C(=O)O)cc1` is ___ inactive

Fill in: this test's call for Nc1nc2ncc(CCNc3ccc(C(=O)NC(CCC(=O)O)C(=O)O)cc3)nc2c(=O)[nH]1 (stereo not given) is ___ inactive

Fill in: this test's call for `CCOC(=O)c1cc(C(=O)c2ccc(OC)c(OC)c2)n2ccc(-c3ccccn3)cc12` is ___ inactive

Fill in: this test's call for `COC(=O)[C@]12CC[C@@H](C)[C@H](C)[C@@H]1C1=CC[C@@H]3[C@@]4(C)C=C(O)C(=O)C(C)=C4CC[C@@]3(C)[C@]1(C)CC2` is ___ inactive

Fill in: this test's call for COc1ccc(C2=CC(c3cc(OC)c(OC)c(OC)c3)n3ncnc3N2)cc1 (stereo not given) is ___ inactive

Fill in: this test's call for `COc1cc2nccc(Oc3ccc(NC(=O)C4(C(=O)Nc5ccc(F)cc5)CC4)cc3)c2cc1OC` is ___ inactive

Fill in: this test's call for `N/C(=N\c1nc2ccc([N+](=O)[O-])cc2s1)C(Cl)(Cl)Cl` is ___ active

Fill in: this test's call for `CC/C=C\C[C@H]1C/C=C2/C(=O)C=C[C@H]2C/C=C\CCCC(=O)O1` is ___ inactive

Fill in: this test's call for `COc1cc(N)c2ncccc2c1Cl` is ___ inactive

Fill in: this test's call for `CCOC(=O)c1c(SC)nn(-c2cc(=O)[nH]c3ccc(Br)cc23)c1N` is ___ inactive

Fill in: this test's call for `CCC(CC)(N(CC(=O)O)CC(=O)O)C(CC)(CC)N(CC(=O)O)CC(=O)O` is ___ inactive

Fill in: this test's call for CCOC(=O)C1(CC(C)C)CCOC1=O (stereo not given) is ___ inactive

Fill in: this test's call for `CC(C)OC1=C(Cl)C(=O)c2ccccc2C1=O` is ___ inactive

Fill in: this test's call for `COc1cc(-c2cncn2-c2ccc(-c3nc4ccc(F)cc4s3)cc2)ccc1F` is ___ inactive

Fill in: this test's call for `CS(=O)(=O)Nc1cc(-c2ccc3ncnc(Nc4cccc(Cl)c4)c3c2)cnc1Cl` is ___ active
